target-or-test-system: Recombinant human Farnesyl Pyrophosphate synthase (FPPS) (Homo sapiens, UniProt P14324)
Construct: made in house
assay-name: FPPS SPA (scintillation proximity FlashPlate assay of FPPS inhibition)
Type: biochemical
condition-set: IC50, Example 15 table; FPPS SPA
assay-metric: IC50 (nM)

>>> numeric_readout("CN(C)c1ccc(C(=O)O)c(OCc2cccc3ccccc23)c1")
190

###

target-or-test-system: Recombinant human Farnesyl Pyrophosphate synthase (FPPS) (Homo sapiens, UniProt P14324)
Construct: made in house
Sequence (P14324 72-419 limits assumed): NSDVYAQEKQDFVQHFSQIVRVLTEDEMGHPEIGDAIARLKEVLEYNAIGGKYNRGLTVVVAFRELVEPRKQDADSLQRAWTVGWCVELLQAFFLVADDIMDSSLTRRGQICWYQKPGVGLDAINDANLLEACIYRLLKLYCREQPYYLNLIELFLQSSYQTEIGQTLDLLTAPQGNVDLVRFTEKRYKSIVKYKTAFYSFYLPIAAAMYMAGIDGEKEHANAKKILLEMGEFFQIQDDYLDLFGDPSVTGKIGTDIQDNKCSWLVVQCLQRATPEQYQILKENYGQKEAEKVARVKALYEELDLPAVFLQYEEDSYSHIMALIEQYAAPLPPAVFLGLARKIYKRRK
assay-name: FPPS SPA (scintillation proximity FlashPlate assay of FPPS inhibition)
Type: biochemical
condition-set: Example 13 table; FPPS SPA; read-out: IC50
This section presents compounds with their documented IC50 values.
assay-metric: IC50 (µM)

>>> numeric_readout("O=C(O)c1ccc(-c2cc3ccccc3o2)cc1OCc1cccc2ccccc12")
1.12
>>> numeric_readout("O=C(O)c1ccc(-c2csc3ccccc23)cc1OCc1cccc2ccccc12")
1.35
>>> numeric_readout("O=C(O)c1ccc(-c2cccc(F)c2)cc1OCc1cccc2ccccc12")
1.14
>>> numeric_readout("Cc1cccc(C)c1-c1ccc(C(=O)O)c(OCc2cccc3ccccc23)c1")
1.1
>>> numeric_readout("COc1ccc(-c2ccc(C(=O)O)c(OCc3cccc4ccccc34)c2)cc1OC")
0.26
>>> numeric_readout("O=C(O)c1ccc(-c2ccccc2F)cc1OCc1cccc2ccccc12")
0.23
>>> numeric_readout("O=C(O)c1ccc(-c2ccoc2)cc1OCc1cccc2ccccc12")
0.55
>>> numeric_readout("COc1ccccc1-c1ccc(C(=O)O)c(OCc2cccc3ccccc23)c1")
1.93
